- assayComment: NCI Yeast Anticancer Drug Screen. Data for the sgs1 mgt1 strain (AID 161);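 also: 0% = growth of cultures given vehicle only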
- assayConditions: S. cerevisiae sgs1 mgt1 strain, at 50.0 µM (retest, dose inferred, filed as 5.0), hits give high values
Compounds without any hit were thinned out: in the full panel of roughly 79,000, 15% have a hit.
measuredProperty: growth inhibition (%)
Kindly answer with a numeric value in %, unit omitted.

Prompt: Request the reported growth inhibition associated with Cc1c(C(C)(C)C)cc(C(C)(C)C)c(O)c1CN(C)Cc1c(C)c(C(C)(C)C)cc(C(C)(C)C)c1O
Response: 33

Prompt: Request the reported growth inhibition associated with CC1(C(Cl)(Cl)Cl)C=CC(=NO)C=C1 (stereo unspecified)
Response: 44

Prompt: Request the reported growth inhibition associated with O=C(NCC#CCO)C(F)(F)F
Response: -8

Prompt: Request the reported growth inhibition associated with CC1CC(c2ccccc2)(c2ccccc2)C(=O)C(C)N1C (stereo unspecified)
Response: -19

Prompt: Request the reported growth inhibition associated with CCN(CC)CCNc1ccc(C)c2oc3ccc(O)cc3c(=O)c12
Response: 29

Prompt: Request the reported growth inhibition associated with CCN(C(C)=O)c1cnc(/C=N/NC(N)=S)c2ccccc12
Response: 71

----------
- assayComment: NCI Yeast Anticancer Drug Screen. Data for the cln2 rad14 strain (AID 165);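 also: 0% = growth equal to vehicle treated cultures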
- assayConditions: S. cerevisiae cln2 rad14 strain, at 50.0 µM (retest, dose inferred, filed as 5.0), hits give high values
The panel holds about 79,000 compounds, 15% with a hit somewhere; the sample as a whole holds those more often.
Field: growth inhibition. Provide a value for each of the compounds that follow.
Kindly answer with a numeric value in %, unit omitted.

Prompt: Request the reported growth inhibition associated with N#CC1CCCC(Cc2ccccc2)(c2ccccc2)C1=O (stereo unspecified)
Response: 70

Prompt: Request the reported growth inhibition associated with Cc1nc(-c2ccccc2)nc2c1nc(C(C)C)n2Nc1ccccc1
Response: 33

Prompt: Request the reported growth inhibition associated with O=S(=O)(c1ccccc1)n1cc(C[P+](c2ccccc2)(c2ccccc2)c2ccccc2)c2ccccc21
Response: 99

Prompt: Request the reported growth inhibition associated with CCC1=CCC2C(=O)c3cc4ccccc4cc3C(=O)C2C1 (stereo unspecified)
Response: 20

Prompt: Request the reported growth inhibition associated with COC(=O)c1nnn(-c2cc(Cl)ccc2Cl)c1C(=O)c1ccc(Cl)c(Cl)c1
Response: 97

Prompt: Request the reported growth inhibition associated with O=C1C2=C(CCCC2)C(=O)C(Cl)C1Cl (stereo unspecified)
Response: 99

----------
Field: growth inhibition. Provide a value for each of the compounds that follow.
- assayComment: NCI Yeast Anticancer Drug Screen. Data for the rad50 strain (AID 155);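 also: 0% = growth of vehicle-only cultures of the same strain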
- assayConditions: S. cerevisiae rad50 strain growth inhibition; at 5.0 µM (retest, dose inferred, filed as 0.5); hits give high values
This is part of a sample that, as a whole, favours compounds with a hit. Of some 79,000 tested, about 15% had one in any assay.
Kindly answer with a numeric value in %, unit omitted.

Prompt: Request the reported growth inhibition associated with COC(=O)C1=C(C)NC(C)=C(C(=O)OC)C1c1ccc(NCc2ccccc2)c([N+](=O)[O-])c1
Response: 4

Prompt: Request the reported growth inhibition associated with Cc1nc2c(O)c3c(c(O)c2nc1C)C1C=CC3CC1
Response: 30

Prompt: Request the reported growth inhibition associated with O=[N+]([O-])c1ccc(N2N=NC(CN3CCOCC3)C2N2CCOCC2)cc1 (stereo unspecified)
Response: 5

Prompt: Request the reported growth inhibition associated with CC(=O)Oc1ccc(Cl)cc1Cc1cc(Cl)ccc1OC(C)=O
Response: 17

Prompt: Request the reported growth inhibition associated with C/C(=N/NC(=S)Nc1cccc(C)c1)c1ccccn1
Response: 62

Prompt: Request the reported growth inhibition associated with CCC(=O)NC1=C(Cl)C(=O)c2ccccc2C1=O
Response: 99

Prompt: Request the reported growth inhibition associated with CCCCCC(C)(O)C#CC(C)(O)CCCCC (stereo unspecified)
Response: 2

Prompt: Request the reported growth inhibition associated with CCCCc1ccc2nccc(N/N=C/c3ccc(OC)c4ccccc34)c2c1
Response: 1

Prompt: Request the reported growth inhibition associated with CC1Cc2ccc3c(c2C(c2ccc4c(c2)OCO4)C1C)OCO3 (stereo unspecified)
Response: -4

Prompt: Request the reported growth inhibition associated with CCCCC(O)(c1ccc2nc(NC(=O)OC)[nH]c2c1)c1cccs1 (stereo unspecified)
Response: -7

Prompt: Request the reported growth inhibition associated with CC1C(C(=O)O)CC([N+](=O)[O-])C(Cl)C1[N+](=O)[O-] (stereo unspecified)
Response: 13

----------
- assayComment: NCI Yeast Anticancer Drug Screen. Data for the cln2 rad14 strain (AID 165);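 also: 0% = growth equal to vehicle treated cultures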
- assayConditions: S. cerevisiae cln2 rad14 strain, at 50.0 µM, hits give high values
The panel holds about 79,000 compounds, 15% with a hit somewhere; the sample as a whole holds those more often.
Cut-off 60% on growth inhibition, inclusive. At or above means fulfilled; below means not fulfilled.

Prompt: Kindly determine if growth inhibition recorded for CN(C)Cc1ccc2c(c1)c1c(n2Cc2ccccc2)CCCC1 is above or exactly 60%.
Response: fulfilled

Prompt: Kindly determine if growth inhibition recorded for CC1(C(Cl)(Cl)Cl)C=CC(=NO)C=C1 (stereo unspecified) is above or exactly 60%.
Response: not fulfilled

Prompt: Kindly determine if growth inhibition recorded for OC(C(=Nc1ccccc1)c1ccccc1)c1ccccc1 (stereo unspecified) is above or exactly 60%.
Response: fulfilled

Prompt: Kindly determine if growth inhibition recorded for N=C(N)Sc1ccc([N+](=O)[O-])cc1Cl is above or exactly 60%.
Response: fulfilled

Prompt: Kindly determine if growth inhibition recorded for c1ccc(-c2cc(CN3CCOCC3)c(-c3ccccc3)o2)cc1 is above or exactly 60%.
Response: not fulfilled

Prompt: Kindly determine if growth inhibition recorded for CC[C@H](CC[C@@H](C)C1CC[C@H]2[C@@H]3CCC4=CC(=O)CC[C@]4(C)[C@H]3CC[C@]12C)C(C)C (stereo partly specified) is above or exactly 60%.
Response: fulfilled

Prompt: Kindly determine if growth inhibition recorded for C/C(=N/NC(=O)Nc1ccc(N=Nc2ccccc2)cc1)c1ccccn1 is above or exactly 60%.
Response: not fulfilled

Prompt: Kindly determine if growth inhibition recorded for CC(=O)Nc1c([N+](=O)[O-])cc2c3c(cccc13)C=C2 is above or exactly 60%.
Response: fulfilled

Prompt: Kindly determine if growth inhibition recorded for O=c1nc(N2CCCC2)nc(N2CCCC2)s1 is above or exactly 60%.
Response: not fulfilled

Prompt: Kindly determine if growth inhibition recorded for O=C(CSc1nnc(Cc2ccccc2)o1)Nc1cccc(Cl)c1 is above or exactly 60%.
Response: fulfilled

Prompt: Kindly determine if growth inhibition recorded for COc1ccc(COCCOCc2nc(C#N)c(N)o2)cc1 is above or exactly 60%.
Response: not fulfilled

----------
- assayComment: NCI Yeast Anticancer Drug Screen. Data for the sgs1 mgt1 strain (AID 161);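 also: 0% = growth of cultures given vehicle only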
- assayConditions: S. cerevisiae sgs1 mgt1 strain, at 50.0 µM, hits give high values
This is part of a sample that, as a whole, favours compounds with a hit. Of some 79,000 tested, about 15% had one in any assay.
Cut-off 40% on growth inhibition, inclusive. At or above means 1 (yes); below means 0 (no).

Prompt: Kindly determine if growth inhibition recorded for CCCC/C=C(\CCCNCCCC)[Si](C)(C)C is above or exactly 40%.
Response: 1 (yes)

Prompt: Kindly determine if growth inhibition recorded for O=C1CSC(c2ccc([N+](=O)[O-])cc2)N1c1ccc(-c2ccc(-n3c(-c4ccccc4)nc4ccccc4c3=O)cc2)cc1 (configuration not stated) is above or exactly 40%.
Response: 1 (yes)

Prompt: Kindly determine if growth inhibition recorded for CC1CC(N)=NC1C(=O)NCCC#N (configuration not stated) is above or exactly 40%.
Response: 1 (yes)

Prompt: Kindly determine if growth inhibition recorded for CCCCCC(/C=N/Nc1nc(C)cc(=O)[nH]1)=C\c1ccccc1 is above or exactly 40%.
Response: 0 (no)

Prompt: Kindly determine if growth inhibition recorded for CC(CN1CCCCCCC1)C(c1ccccc1)c1ccccc1 (configuration not stated) is above or exactly 40%.
Response: 1 (yes)

Prompt: Kindly determine if growth inhibition recorded for CCCCCCCCN(CCCCCCCC)CC(O)c1cc2c(c3ccccc13)CCCC2 (configuration not stated) is above or exactly 40%.
Response: 1 (yes)

Prompt: Kindly determine if growth inhibition recorded for CCCC(Sc1ccccc1)c1ccccc1NC(C)=O (configuration not stated) is above or exactly 40%.
Response: 1 (yes)

Prompt: Kindly determine if growth inhibition recorded for c1ccc([CH2][Sn]([CH2]c2ccccc2)([S]c2cccc3cccnc23)[S]c2cccc3cccnc23)cc1 is above or exactly 40%.
Response: 1 (yes)

Prompt: Kindly determine if growth inhibition recorded for C=CCOC(=O)CC(O)C(=O)OCC=C (configuration not stated) is above or exactly 40%.
Response: 0 (no)

Prompt: Kindly determine if growth inhibition recorded for COc1ccc2c(c1OC)OCC2C (configuration not stated) is above or exactly 40%.
Response: 0 (no)

Prompt: Kindly determine if growth inhibition recorded for c1ccc2c(c1)cc(C1NCCc3[nH]cnc31)c1ccccc12 (configuration not stated) is above or exactly 40%.
Response: 0 (no)

Prompt: Kindly determine if growth inhibition recorded for CCCCCC/C=C/C#CCCCCCCCC(=O)O is above or exactly 40%.
Response: 0 (no)
